From: BindingDB's records for doi:10.1021/acsmedchemlett.8b00532

- test-details: Inhibition of NHERF1 in human SW620 cells expressing NHERF1 assessed as inhibition cell growth incubated for 72 hrs by MTT assay
result-type: pIC50
As a rule, pIC50 stands for the negative log10 of the concentration, concentration in M.

Which pIC50 reading was recorded for the molecule Cc1cc([N+](=O)[O-])ccc1NS(=O)(=O)c1cc(Cl)ccc1Cl ? 4.72
